This section presents compounds with their documented composite z-score values.
# measured.on: Neurogenic locus notch homolog protein 2 (Homo sapiens)
# run.description: Notch2 binders on small-molecule microarrays, primary screen, biochemical, small-molecule microarray, 635 nm fluorescence, stem cell growth factors (AID 1073)
# study.conditions: Notch2 binding, higher = more signal
readout.kind: composite z-score

[[record]]
compound_string = "[N-]=[N+]=NCc1ccccc1[C@H]1OC(c2ccc(OCCCO)cc2)=N[C@@]1(Cc1ccccc1N=[N+]=[N-])C(N)=O"
readout_kind = "composite z-score"
value_reported = 1.54

[[record]]
compound_string = "C=C1C(=O)C=C2CN(C(=O)c3ccccc3)[C@@](Cc3ccc(F)cc3)(C(=O)OC)[C@@H]12"
readout_kind = "composite z-score"
value_reported = 1.71

[[record]]
compound_string = "COCCOC(=O)N1C(=O)[C@@]2(c3cc(C#CCNC(N)=O)ccc31)[C@H](C(N)=O)[C@H]1C(=O)O[C@H](c3ccccc3)[C@H](c3ccccc3)N1[C@@H]2c1ccc(O)cc1"
readout_kind = "composite z-score"
value_reported = -0.148

[[record]]
compound_string = "COC(=O)Cn1c(C(=O)N(C)C)cc2c1C[C@H]1CN(C(=O)c3ccccc3)[C@@](Cc3ccccc3)(C(=O)OC)[C@@H]21"
readout_kind = "composite z-score"
value_reported = 1.47


* * *

# System: PRMT1 (protein arginine N-methyltransferase 1)
# run.description: PRMT1 binders on small-molecule microarrays, primary screen, biochemical, small-molecule microarray, 635 nm fluorescence (AID 1088);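 note: binding of Prmt1 protein to compounds spotted on small-molecule microarray slides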
# study.conditions: small-molecule microarray binding, higher = more signal
readout.kind: composite z-score

[[record]]
molecule = "[N-]=[N+]=Nc1ccccc1C[C@]1(C(=O)N2CCCCC2)N=C(c2ccc(OCCCO)cc2)O[C@H]1c1ccccc1"
value_reported = 1.33

[[record]]
molecule = "C=CCNC(=O)[C@H]1[C@@H]2C(=O)O[C@@H](c3ccccc3)[C@@H](c3ccccc3)N2[C@@H](c2ccc(OCCO)cc2)[C@]12C(=O)Nc1ccc(C#Cc3ccc(OC)cc3)cc12"
value_reported = 1.56

[[record]]
molecule = "CS(=O)(=O)CCOC(=O)C1=CC(CCCO)=CC(C2CC2)N(Cc2sc3ccccc3c2Cl)C=C1C(=O)OCCS(C)(=O)=O (centres undefined)"
value_reported = 1.13

[[record]]
molecule = "CC(C)C[C@@H]1NC(=O)[C@@H]2C[C@H](C(=O)NCCCCCCNC(=O)CS)[C@H](c3ccc(O)cc3)N2C1=O"
value_reported = 1.53

[[record]]
molecule = "C=CCNC(=O)[C@@H]1[C@H]2C(=O)O[C@H](c3ccccc3)[C@H](c3ccccc3)N2[C@H](c2ccc(O)cc2)[C@@]12C(=O)N(C(=O)OCCOC)c1ccc(C#CCC(C(=O)OC)C(=O)OC)cc12"
value_reported = 1.5

[[record]]
molecule = "CC(C)C(=C=CC[C@H](O)c1cccc(OCCO)c1)C[C@H](O)c1ccccn1"
value_reported = 1.21

[[record]]
molecule = "Cc1ccc(S[C@]2(C(=O)NC3CC3)CC(=O)N(C3Cc4ccccc4C3)[C@@H]2c2ccc(CO)cc2I)cc1"
value_reported = 0.198

[[record]]
molecule = "CCCC=C(CCC)[C@@H](NC(=O)c1ccc(C(=O)OC)cc1)c1ccc(C(=O)OC)cc1"
value_reported = 0.0599

[[record]]
molecule = "CCCCCCCCCCC(O)C1C=CC2C(=O)N(C)C(=O)C2N1Nc1ccccc1 (centres undefined)"
value_reported = -1.19

[[record]]
molecule = "O=C1C2C=CC(C(O)C(c3ccccc3)c3ccccc3)N(Nc3ccccc3F)C2C(=O)N1c1ccccc1 (centres undefined)"
value_reported = 1.52

[[record]]
molecule = "COc1cc2c(cc1OC)CN(C(=O)[C@@H]1[C@H]3C(=O)O[C@H](c4ccccc4)[C@H](c4ccccc4)N3[C@H](c3ccc(O)cc3)[C@@]13C(=O)Nc1ccc(C#CC4=CCCCC4)cc13)CC2"
value_reported = 1.55

[[record]]
molecule = "C=CCNC(=O)[C@H]1[C@@H]2C(=O)O[C@@H](c3ccccc3)[C@@H](c3ccccc3)N2[C@@H](c2ccc(O)cc2)[C@]12C(=O)Nc1ccccc12"
value_reported = 1.05

[[record]]
molecule = "[N-]=[N+]=NCc1ccccc1[C@H]1OC(c2ccc(OCCCO)cc2)=N[C@@]1(CCS(=O)(=O)c1ccccc1)C(=O)NCCN1CCOCC1"
value_reported = 1.56

[[record]]
molecule = "CCOC(=O)C[C@H]1[C@H](OC(=O)c2cc3ccccc3oc2=O)[C@@H](NC(=O)Cc2ccc(OC)cc2)c2cc(OCCCO)ccc2N1C(=O)Cc1ccc(OC)cc1"
value_reported = 0.638

[[record]]
molecule = "[N-]=[N+]=NCc1ccccc1[C@H]1OC(c2ccc(OCCCO)cc2)=N[C@@]1(CCS(=O)(=O)c1ccccc1)C(=O)O"
value_reported = 0.0361

[[record]]
molecule = "O=C1NC(=O)C2C1C=CC(C(O)C1CCCCC1)N2Nc1ccccn1 (centres undefined)"
value_reported = 0.327

[[record]]
molecule = "O=C1O[C@@H](c2ccccc2)[C@@H](c2ccccc2)N2[C@@H](c3ccccc3OCCO)[C@]3(C(=O)Nc4ccc(C#CC5(O)CCCCCC5)cc43)[C@@H](C(=O)N3CCCCCCC3)[C@H]12"
value_reported = 1.53

[[record]]
molecule = "CC[C@@H](O[Si](C#C[Si](C(C)C)(C(C)C)C(C)C)(C(C)C)C(C)C)c1cn(Cc2cccc(Cl)c2)nn1"
value_reported = 0.869

[[record]]
molecule = "COC(=O)c1ccc(OC)c(/C=C\\CC(OC(=O)c2ccncc2)c2ccccc2)c1 (centres undefined)"
value_reported = 0.264

[[record]]
molecule = "Cc1ccc(S[C@]2(C(=O)NCC(C)C)CC(=O)N(C(C)C)[C@@H]2c2ccc(CO)cc2I)cc1"
value_reported = 1.53

[[record]]
molecule = "O=C1c2ccccc2[C@@]2(Cc3ccccc3N(CC(F)(F)F)C2=O)[C@H](c2ccc(CO)cc2)N1Cc1ccccc1"
value_reported = 0.349

[[record]]
molecule = "CN(C)C(=O)[C@]1(CCS(=O)(=O)c2ccccc2)N=C(c2ccc(OCCCO)cc2)O[C@@H]1c1ccccc1CN=[N+]=[N-]"
value_reported = 1.55

[[record]]
molecule = "C=CCNC(=O)[C@@H]1[C@H]2C(=O)O[C@H](c3ccccc3)[C@H](c3ccccc3)N2[C@H](c2ccc(O)cc2)[C@@]12C(=O)Nc1ccc(C#CC3=CCCCC3)cc12"
value_reported = 1.55

[[record]]
molecule = "C[N+](C)(C)CCCC[C@@H]1NC(=O)[C@H]2C[C@@H](C(=O)O)[C@@H](c3ccc(O)cc3)N2C1=O"
value_reported = 0.777

